# Tested on: HEK-293T
# experiment: Multiplex assay against HEK293T
# Type: toxicity, cell-based
# recordedConditions: human, 12 h, 1 µM, compound concentration 1 uM, replicate 2
Answer n if Population Hoechst High Intensity Objects (%) is under 5%, and y if it is 5% or more.

Request: Textbook exercise: given the entry Nc1nc2c(c(N3CCNCC3)n1)CCC1=C2[C@@H]2CCCC[C@@H]2O1 , state whether its Population Hoechst High Intensity Objects (%) is greater than or equal to 5%.
Response: n

Request: Please check the record N#Cc1cnc(Nc2cc(NC[C@H]3CNCCO3)c(C(F)(F)F)cn2)cn1 [SRA-737] and state if its Population Hoechst High Intensity Objects (%) is at or above 5%.
Response: n

Request: hey, is Population Hoechst High Intensity Objects (%) for this one >= 5%? CC(=O)c1cc(-c2cc(C(=O)NC3CC3)ccc2C)c2ncccn12
Response: n

Request: Reported Population Hoechst High Intensity Objects (%) at or above 5%? CNc1oc(-c2cccc3ccccc23)nc1C#N
Response: y

Request: Does the reported Population Hoechst High Intensity Objects (%) for CC(C)N1CCC(C)(C)c2cc(C#Cc3ccc(C(=O)O)cc3)ccc21 fall at or above the 5% mark?
Response: y

Request: Textbook exercise: given the entry CCc1cc2c(cc1CC)CC(NC[C@H](O)c1ccc(O)c3[nH]c(=O)ccc13)C2 [INDACATEROL] , state whether its Population Hoechst High Intensity Objects (%) is greater than or equal to 5%.
Response: n

Request: Determine whether measured Population Hoechst High Intensity Objects (%) meets or exceeds 5% for Cc1cc2c(cc1N1C(=O)c3cccc4c(CCCO)ccc(c34)C1=O)n(C)c(=O)n2C
Response: y

Request: Could you verify whether the entry COc1cc2c(NC3CCN(C(C)C)CC3)nc(N3CCC(F)(F)CC3)nc2cc1OCCCN1CCCC1 shows Population Hoechst High Intensity Objects (%) of no less than 5%?
Response: y
